Test system: AGPPase (soluble and particulate isoforms)
Test: AGPPase enzymatic assay (two-step spectrophotometric determination of G1P produced from ADPG)
Format: biochemical, barley (Hordeum vulgare), tomato (Lycopersicon sculentum)
Measured Quantity: Inhibition of AGPPase

Input Nc1ncnc2c1ncn2[C@@H]1O[C@H](COP(=O)(O)OP(=O)(O)O)[C@@H](O)[C@H]1O , output reported Inhibition of AGPPase.
inhibited

Input O=C(O)[C@H](O)COP(=O)(O)O [3-phosphoglycerate] , output reported Inhibition of AGPPase.
inhibited

Input Nc1ncnc2c1ncn2[C@@H]1O[C@H](COP(=O)(O)O)[C@@H](O)[C@H]1O , output reported Inhibition of AGPPase.
inhibited

Input Nc1ncnc2c1ncn2[C@@H]1O[C@H](COP(=O)(O)OP(=O)(O)OP(=O)(O)O)[C@@H](O)[C@H]1O , output reported Inhibition of AGPPase.
inhibited

###

System: AGPPase (soluble and particulate isoforms)
Assay: AGPPase enzymatic assay (two-step spectrophotometric determination of G1P produced from ADPG)
Assay type: biochemical, barley (Hordeum vulgare), tomato (Lycopersicon sculentum)
Measured Quantity: Hydrolysis / recognition as substrate by AGPPase

Consider the following illustrative entries.
Input O=C(O)[C@H](O)COP(=O)(O)O [3-phosphoglycerate] , output reported Hydrolysis / recognition as substrate by AGPPase.
do not hydrolyse

Input Nc1ncnc2c1ncn2[C@@H]1O[C@H](COP(=O)(O)O)[C@@H](O)[C@H]1O [AMP] , output reported Hydrolysis / recognition as substrate by AGPPase.
do not hydrolyse

Input O=C[C@H](O)[C@@H](O)[C@H](O)[C@H](O)COP(=O)(O)O [G6P, glucose-6-phosphate] , output reported Hydrolysis / recognition as substrate by AGPPase.
do not hydrolyse

Input O=[N+]([O-])c1ccc(OP(=O)(O)Oc2ccc([N+](=O)[O-])cc2)cc1 [bis-PNPP, bis-paranitrophenylphosphate] , output reported Hydrolysis / recognition as substrate by AGPPase.
recognise

Input Nc1nc2c(ncn2[C@@H]2O[C@H](COP(=O)(O)OP(=O)(O)O[C@H]3O[C@H](CO)[C@@H](O)[C@H](O)[C@@H]3O)[C@@H](O)[C@H]2O)c(=O)[nH]1 [GDP-mannose] , output reported Hydrolysis / recognition as substrate by AGPPase.
recognises

***
Input Nc1ncnc2c1ncn2[C@@H]1O[C@H](COP(=O)(O)OP(=O)(O)O[C@H]2O[C@H](CO)[C@@H](O)[C@H](O)[C@@H]2O)[C@@H](O)[C@H]1O [ADP-mannose] , output reported Hydrolysis / recognition as substrate by AGPPase.
recognises

Input Nc1nc2c(ncn2[C@@H]2O[C@H](COP(=O)(O)OP(=O)(O)O[C@H]3O[C@H](CO)[C@@H](O)[C@H](O)[C@H]3O)[C@@H](O)[C@H]2O)c(=O)[nH]1 [GDP-glucose] , output reported Hydrolysis / recognition as substrate by AGPPase.
recognise
